Target: hPPARδ/β (Homo sapiens, UniProt Q03181)
Construct: gene PPARD; GAL4-hPPARδ LBD fusion
Sequence (Q03181 171-441 limits assumed): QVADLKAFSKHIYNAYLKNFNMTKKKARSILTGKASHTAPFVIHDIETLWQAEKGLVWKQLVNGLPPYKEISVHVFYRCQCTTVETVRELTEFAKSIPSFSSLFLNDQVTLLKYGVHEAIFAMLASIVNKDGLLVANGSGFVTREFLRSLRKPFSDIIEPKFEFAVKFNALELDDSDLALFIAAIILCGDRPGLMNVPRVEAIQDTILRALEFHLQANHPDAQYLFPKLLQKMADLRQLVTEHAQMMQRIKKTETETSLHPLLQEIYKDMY
Experiment: GAL4-LBD UAS-luciferase reporter in HEK293
Format: cell-based
outcomeMeasure: pEC50
Answer as the number alone; pEC50 is minus log10 of concentration in mol/L.

Request the reported pEC50 associated with O=C(O)COc1ccc(SCC=C(c2ccc(Br)cc2)c2ccc(Br)cc2)cc1Cl
7.89
